Values from ChEMBL document CHEMBL1914360

// reported Papp A→B at 0.5 h, 100 µM per item
assay: Apparent permeability from apical to basolateral side of the human Caco2 cells at 100 uM after 30 mins by HPLC method; type: ADME, cell-based; conditions: Caco-2
Record the value in ×10⁻⁶ cm/s, omitting the unit from your answer.

The compound identified as CCCNP(=O)(CCl)OC[C@H]1O[C@@H](n2cc(C)c(=O)[nH]c2=O)C[C@@H]1N=[N+]=[N-] (stereo partly drawn) registered its Papp A→B at 0.5 h, 100 µM at 3.22

The compound identified as Cc1cn([C@H]2C[C@H](N=[N+]=[N-])[C@@H](CO)O2)c(=O)[nH]c1=O [ZIDOVUDINE] registered its Papp A→B at 0.5 h, 100 µM at 2.85

The compound identified as Cc1cn([C@H]2C[C@H](N=[N+]=[N-])[C@@H](COP(=O)(CCl)NC(C)C)O2)c(=O)[nH]c1=O (stereo partly drawn) registered its Papp A→B at 0.5 h, 100 µM at 3.36

###

experiment: Oral bioavailability in human; assay type: ADME, organism-based; conditions: in vivo
REPORTED PROPERTY: bioavailability (%)
Record the value in %, omitting the unit from your answer.

The compound identified as Cc1cn([C@H]2C[C@H](N=[N+]=[N-])[C@@H](CO)O2)c(=O)[nH]c1=O [ZIDOVUDINE] registered its bioavailability at 63
